// values below are reported AC35
system: A673 NR0B1-luciferase reporter, viability-normalised luminescence; assay: suppressors of NR0B1-promoter luciferase reporter, dose response, EWS/Fli inhibitor project, luciferase luminescence, A673 cells, cherry-pick (AID 686920)

Consider the following illustrative entries.
Look up and report measured AC35 for this entry: "COc1cc(-c2coc3c(C(=O)NCc4ccc(C(F)(F)F)cc4)cccc23)ccc1O"
2.21 µM

Given the molecule N#CC1=C(N)Oc2cc(N)ccc2C1c1cccc(Br)c1 (stereo not given) , write its reported AC35.
0.542 µM

In one line, give reported AC35 of the entry "O=C(CCCN1C(=O)/C(=C/c2ccccc2Cl)SC1=S)NNC(=O)c1ccc(Cl)cc1Cl" .
3.4 µM

Supply AC35 value. Item: "CCCCc1c(Cc2ccccc2)ncn1CCc1ccccc1OC"
20.8 µM

Provide only the value of recorded AC35 for "Cc1ccc(S(=O)(=O)Nc2ccc3c(c2)C(=O)N([C@@H](C)CO)C[C@@H](C)[C@H](CN(C)Cc2ccc(C(F)(F)F)cc2)OCCCC[C@H](C)O3)cc1"
7.44 µM

Report measured AC35; entry is "Oc1cccc(-c2nnc(-c3cccc(O)c3)nn2)c1"
7.64 µM

Dear colleague, please send me the reported AC35 for "C[C@@H]1CN([C@H](C)CO)C(=O)c2cc(NC(=O)CCCCCC(=O)Nc3ccccc3N)ccc2O[C@@H]1CN(C)Cc1ccc(Cl)c(Cl)c1" when you can.
5.24 µM

Fill in reported AC35 for this entry: "Cc1ccc(N2C(=O)c3cccc4c(N)ccc(c34)C2=O)c2cccnc12"
< 0.03 µM

// Input: "O=C1NC(=O)N(Cc2ccco2)C(=O)/C1=C/C=C/c1ccco1" . Output its AC35 only.
6.32 µM

Identify the reported AC35 for the following entry. "CCc1nc(N)nc(N)c1-c1ccc(Cl)cc1"
5.12 µM

More entries:
Kindly indicate its recorded AC35. Item: COC(=O)C1=C(C)N(Cc2cccc(C(F)(F)F)c2)C(=NCc2ccc(OC)cc2)NC1c1cccc(F)c1 (stereo not given)
13.2 µM

----------
Catalogue of AC35 readings, one per entry.
tested on: A673 NR0B1-luciferase reporter, viability-normalised luminescence; assay: suppressors of NR0B1-promoter luciferase reporter, dose response, EWS/Fli inhibitor project, luciferase luminescence, A673 cells, cherry-pick (AID 686920)

Here is how some molecules turned out for AC35.
With A673 NR0B1-luciferase reporter, viability-normalised luminescence as the test system, provide measured AC35 for this molecule: "Cc1ccc(OCCNC(=O)c2cccc(S(=O)(=O)NCc3ccccc3)c2)cc1"
3.98 µM

Name the value of AC35 reported for "COCC(=O)Nc1ccc2c(c1)[C@@H]1C[C@@H](CC(=O)NCc3ccc(-c4ccccc4)cc3)O[C@@H](CO)[C@@H]1O2" when tested on A673 NR0B1-luciferase reporter, viability-normalised luminescence.
10.1 µM

Quote A673 NR0B1-luciferase reporter, viability-normalised luminescence AC35 for entry "COC(=O)Cc1[nH]n(-c2nc3ccccc3s2)c(=O)c1C(C)=Nc1ccc(OC)cc1" .
4.31 µM

Find AC35 for "COc1ccc(-c2nc3c(s2)CCc2onc(-c4ccc(OC)cc4)c2-3)cc1" on A673 NR0B1-luciferase reporter, viability-normalised luminescence and write it down.
7.59 µM

System A673 NR0B1-luciferase reporter, viability-normalised luminescence. Read-out AC35. Item Cc1ccc(C(C(=O)NCc2ccco2)N(C(=O)CNC(=O)c2cccs2)c2c(C)cc(C)cc2C)cc1 (configuration not stated) . Report value.
42 µM

Others:
Look up and report AC35, with A673 NR0B1-luciferase reporter, viability-normalised luminescence as system, for "O=C(CN1C(=O)C(=O)c2ccccc21)c1ccc(Cl)cc1"
34.2 µM

Tell me its AC35 on A673 NR0B1-luciferase reporter, viability-normalised luminescence: "CN1c2ccc(-c3ccc(C#N)cc3)cc2[C@H]2[C@H](CCN2S(=O)(=O)c2cccc(F)c2)[C@@H]1CO"
4.64 µM

Using A673 NR0B1-luciferase reporter, viability-normalised luminescence as the test system, report measured AC35 of "O=C(C[C@@H]1C[C@H]2c3cc(NC(=O)CC4CC4)ccc3O[C@H]2[C@H](CO)O1)NCc1ccccc1F" .
40.3 µM

Send back A673 NR0B1-luciferase reporter, viability-normalised luminescence AC35 of "COc1ccc(/C=C2\Oc3ccccc3C2=O)cc1" only.
8.51 µM

Write down the reported AC35 (system: A673 NR0B1-luciferase reporter, viability-normalised luminescence) of "COc1ccc2cc(C(N)=O)/c(=N\NC(=O)c3ccccc3)oc2c1"
5.91 µM

Report the value of AC35 obtained on A673 NR0B1-luciferase reporter, viability-normalised luminescence for "Cc1ccc(/C=N/Nc2ccnc3cc(Cl)ccc23)c(C)c1" .
15.3 µM

State recorded AC35 with A673 NR0B1-luciferase reporter, viability-normalised luminescence, entry "C[C@@H]1CCCCO[C@H](CN(C)Cc2ccc(C(=O)Nc3ccccc3N)cc2)[C@@H](C)CN([C@H](C)CO)C(=O)c2cc(NS(=O)(=O)c3ccc(Cl)cc3)ccc2O1" , no comment.
5.04 µM

Please report AC35 with A673 NR0B1-luciferase reporter, viability-normalised luminescence for item "C[C@H](CO)N1C[C@H](C)[C@H](CN(C)Cc2ccccc2)Oc2ccc(NC(=O)CCCCCC(=O)Nc3ccccc3N)cc2CC1=O" .
5.93 µM

Using A673 NR0B1-luciferase reporter, viability-normalised luminescence as the test system, report measured AC35 of CC(=O)N1CCCC(c2cc(C(=O)Nc3ccccc3)no2)C1 (configuration not stated) .
2.06 µM

Report value only: AC35, A673 NR0B1-luciferase reporter, viability-normalised luminescence, "O=C(C[C@@H]1C[C@H]2c3cc(NS(=O)(=O)c4ccc(F)cc4)ccc3O[C@H]2[C@H](CO)O1)NCc1ccc(-c2ccccc2)cc1"
2.03 µM

Give AC35 for this entry on A673 NR0B1-luciferase reporter, viability-normalised luminescence: "C[C@H]1CCCCO[C@H](CN(C)Cc2ccc(C(F)(F)F)cc2)[C@@H](C)CN([C@@H](C)CO)C(=O)c2cc(NC(=O)Nc3ccccc3)ccc2O1"
19.4 µM

Provide AC35, system A673 NR0B1-luciferase reporter, viability-normalised luminescence, entry "Cc1ccc(C(=O)CN2C(=O)c3ccccc3S2(=O)=O)cc1"
1.97 µM

Tell me AC35 of "C=CCn1c(O)c(N=Nc2ccccc2)c2ccccc21" when tested on A673 NR0B1-luciferase reporter, viability-normalised luminescence.
38.9 µM

Jot down AC35 (A673 NR0B1-luciferase reporter, viability-normalised luminescence) of "Cc1nn(Cc2ccccc2Cl)c2sc(C(=O)Nc3ccccc3N3CCOCC3)cc12" .
10.3 µM

Provide measured AC35 on A673 NR0B1-luciferase reporter, viability-normalised luminescence for COc1cc2c(cc1OC)C(C)N(C(=O)c1cc(Cl)nc(Cl)c1)CC2 (configuration not stated) please.
6.06 µM

Would you please give the reported AC35 of COc1ccc(C2=Nn3c(nnc3-c3ccccc3F)SC2)cc1OC1CCOC1 (configuration not stated) with A673 NR0B1-luciferase reporter, viability-normalised luminescence?
4.37 µM

Return reported AC35 for target or system A673 NR0B1-luciferase reporter, viability-normalised luminescence, item "CCc1ccc(/C=C2\SC(=S)N(CCCC(=O)Nc3cc(C)on3)C2=O)cc1" .
0.947 µM

For A673 NR0B1-luciferase reporter, viability-normalised luminescence, give AC35 of the listed molecule: "CCOc1cc(/C=N/Nc2cc(C)nc(-n3nc(C)cc3C)n2)ccc1O"
35.8 µM

Enter AC35 (test system A673 NR0B1-luciferase reporter, viability-normalised luminescence) for "O=C(Nc1ccc(NC(=O)c2cc3ccccc3o2)cc1)c1ccc2c(c1)OCCO2"
13.2 µM

Origin of the recorded values: PubChem BioAssay AID686920
